- EXPERIMENTAL_TARGET: T1, human MET extracellular domain (ECD) (human, UniProt P08581 25-932)
- T1 construct: range 1-932; recombinant ECD; also called hMET; human MET ECD
- T1 sequence (P08581 25-932 limits assumed, form in doubt): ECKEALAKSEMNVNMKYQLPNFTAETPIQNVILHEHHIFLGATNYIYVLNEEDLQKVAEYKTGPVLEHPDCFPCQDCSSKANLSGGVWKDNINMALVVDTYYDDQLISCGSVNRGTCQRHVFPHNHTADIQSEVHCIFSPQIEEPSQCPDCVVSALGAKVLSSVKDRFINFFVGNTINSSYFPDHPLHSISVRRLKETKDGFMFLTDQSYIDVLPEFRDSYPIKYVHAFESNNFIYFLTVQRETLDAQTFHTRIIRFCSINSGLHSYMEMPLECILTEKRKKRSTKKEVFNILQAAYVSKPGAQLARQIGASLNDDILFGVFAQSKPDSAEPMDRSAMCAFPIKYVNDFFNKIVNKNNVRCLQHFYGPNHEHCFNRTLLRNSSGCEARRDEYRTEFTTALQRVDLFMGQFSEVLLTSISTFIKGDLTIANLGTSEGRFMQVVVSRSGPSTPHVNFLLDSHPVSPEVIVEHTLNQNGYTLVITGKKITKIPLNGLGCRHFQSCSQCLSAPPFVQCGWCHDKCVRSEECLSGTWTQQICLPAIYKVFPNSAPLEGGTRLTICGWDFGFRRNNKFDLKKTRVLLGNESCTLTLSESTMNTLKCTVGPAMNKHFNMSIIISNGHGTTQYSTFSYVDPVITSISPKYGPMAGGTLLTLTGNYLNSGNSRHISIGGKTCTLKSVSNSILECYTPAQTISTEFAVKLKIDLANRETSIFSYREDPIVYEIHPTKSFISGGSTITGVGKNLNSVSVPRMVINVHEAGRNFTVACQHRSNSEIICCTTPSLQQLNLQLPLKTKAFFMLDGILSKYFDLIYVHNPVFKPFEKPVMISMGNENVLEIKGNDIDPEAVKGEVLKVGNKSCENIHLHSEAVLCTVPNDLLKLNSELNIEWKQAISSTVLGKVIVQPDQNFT
- EXPERIMENTAL_PROTOCOL: ELISA, periplasmic Fab on MET ECD

BINDER | ELISA OD450
Fab 71G12 (Fab, V domains shown, llama Fab (VH-CH1, kappa VL-CL) with MYC flag, crude periplasmic extract) VH: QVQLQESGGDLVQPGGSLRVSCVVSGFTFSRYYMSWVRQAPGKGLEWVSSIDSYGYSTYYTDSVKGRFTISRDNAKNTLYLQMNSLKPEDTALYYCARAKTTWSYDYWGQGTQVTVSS VL: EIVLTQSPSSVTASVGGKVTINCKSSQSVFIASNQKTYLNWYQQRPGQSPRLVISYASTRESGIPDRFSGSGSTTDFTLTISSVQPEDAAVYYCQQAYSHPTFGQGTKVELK | 0.45 AU
Fab 71G2 (Fab, V domains shown, llama Fab (VH-CH1, lambda VL-CL) with MYC flag, crude periplasmic extract) VH: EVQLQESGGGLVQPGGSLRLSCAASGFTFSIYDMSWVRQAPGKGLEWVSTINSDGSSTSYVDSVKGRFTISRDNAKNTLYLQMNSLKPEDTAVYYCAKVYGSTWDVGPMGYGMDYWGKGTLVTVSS VL: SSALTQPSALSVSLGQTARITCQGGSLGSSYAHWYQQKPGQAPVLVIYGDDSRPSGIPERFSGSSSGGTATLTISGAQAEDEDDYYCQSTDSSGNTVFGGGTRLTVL | 0.561 AU
Fab 71D4 (Fab, V domains shown, llama Fab (VH-CH1, lambda VL-CL) with MYC flag, crude periplasmic extract) VH: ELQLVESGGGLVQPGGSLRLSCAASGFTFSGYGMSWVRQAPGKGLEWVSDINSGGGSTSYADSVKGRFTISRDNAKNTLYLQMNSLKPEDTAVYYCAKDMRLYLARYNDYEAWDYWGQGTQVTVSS VL: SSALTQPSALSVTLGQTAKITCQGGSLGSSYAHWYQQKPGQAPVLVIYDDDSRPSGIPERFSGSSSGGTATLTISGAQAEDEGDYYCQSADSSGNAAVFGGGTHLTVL | 0.311 AU
Fab 71A3 (Fab, V domains shown, llama Fab (VH-CH1, lambda VL-CL) with MYC flag, crude periplasmic extract) VH: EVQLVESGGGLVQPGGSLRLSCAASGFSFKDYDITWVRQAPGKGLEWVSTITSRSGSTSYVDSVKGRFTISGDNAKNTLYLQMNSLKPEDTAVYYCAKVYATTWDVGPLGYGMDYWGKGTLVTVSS VL: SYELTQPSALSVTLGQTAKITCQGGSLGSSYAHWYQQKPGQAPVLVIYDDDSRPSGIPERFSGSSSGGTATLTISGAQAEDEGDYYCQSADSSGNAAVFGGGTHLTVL | 0.581 AU
